Values were extracted from the supplement of paper PMC9170038.

# System: MS2 coat protein
# run-description: apparent KD of MS2 coat protein; higher = weaker reporter binding
# conditions: Eterna round: R107; input ligand: theophylline 20 uM
Listed next: entries and their corresponding apparent KD of MS2 coat protein.

Prompt line: Recorded apparent KD of MS2 coat protein of AAGAAGUUUUGAUUUUUAUGAAGUAGUGAUACCAGUCAAGAAAGAGACCCUUGGCAGCGCAACAUGAGGAUCACCCAUGUAAGAA [A random design] , please.
Response line: 26.7 nM

Prompt line: Recorded apparent KD of MS2 coat protein of GGCGUCGGGCGAAGGAGCGUGAAGACAUGAGGAUCACCCAUGUAGAGGCCCGAACAGGGUUCGCAGGUAGGUCGCGCGCGGUGCC [#1 Same State - Arginine B Attempt #6 (HarryS)] , please.
Response line: 24.7 nM

Prompt line: Recorded apparent KD of MS2 coat protein of UCGCUCGCCGUAAGGCGAGCGAGUUGCGAUACCAGCCCGGAAACGGGCCCUUGGCAGCGCACAUGAGGAUCACCCAUGUCAUGUU [#1 Exclusion - Theophylline A Attempt #5 (HarryS)] , please.
Response line: 35.1 nM

Prompt line: Recorded apparent KD of MS2 coat protein of ACACAUGAGGAUCACCCAUGUGCGCUGGAAGGAGCGCAGAAUCAUGCAGGUAGGUCGCCAGUGCCCUUUGAUAAAGGGAAAAGAG [Reor] , please.
Response line: 99.7 nM

Prompt line: Recorded apparent KD of MS2 coat protein of GUCUGUGACUGAAGGAGCGACAUGAGGAUCACCCAUGUCUCCCGUUAUGGGAGUUCCUUAGGUCAGGUAGGUCGCAGUCACAGAC [#1 Exclusion - Arginine B Attempt #28 (Inspired by Omei)] , please.
Response line: 137 nM

Prompt line: Recorded apparent KD of MS2 coat protein of AUACAUGAGGAUCACCCAUGUGAUGGCCGGCGAGGACCGGUACGGCCGCCACUCGUGAUCCGUCCCGAGAGCAAAGCUCUCGACA [Raatala] , please.
Response line: 436 nM

* * *

# Test system: MS2 coat protein
# run-description: apparent KD of MS2 coat protein; higher = weaker reporter binding
# conditions: Eterna round: R107; input ligand: arginine 13.2 mM
measured-metric: apparent KD of MS2 coat protein (nM)
Only the number, expressed in nM, is required.

// below: answered sequences
item-sequence	study-target	reading
GAAGACAUGAGGAUCACCCAUGUUACACACCGAGGACCGGUACGGCCGCCACUCGUAGGCCCUCGGCUCACCUGAGAUCCGCAUC [theeternabot_sameState_MS2_Trp_A_11]	MS2 coat protein	17.5
AAUUAUCAGUCGGCCGCCACUGACACAUGAGGAUCACCCAUGUAAUAUGGGUAAAAUUAACUGAACAGGACCGGGACAAAUGCUA [JR_SSTryptoB_Sub021]	MS2 coat protein	135

Then this sequence:
Prompt line: Recorded apparent KD of MS2 coat protein of GUCCUAGCGAGCGCUCGCUAGGACGCGGAUACCAGCGAGGUCCAUCGCCCUUGGCAGCCGAACAUGAGGAUCACCCAUGUCGGUA [#1 Same State - Theophylline A Attempt #16 (HarryS)] , please.
Response line: 8.3

* * *

# System: K4 kissing-loop RNA reporter;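 also: bound reporter read as fluorescence of individual clusters on recovered sequencing chips by microscopy, with normalized cluster intensities fitted with a binding model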
# run-description: apparent KD of K4 kissing-loop reporter; higher = weaker reporter binding
# conditions: Eterna round: R107; input ligand: theophylline 20 uM
measured-metric: apparent KD of K4 kissing-loop reporter (nM)
Only the number, expressed in nM, is required.

// below: answered sequences
item-sequence	u	reading
UGACUGGACUGAAGGAGCGCUGAAGGAGCGUAAGUAGUGAUGUUGCUUACAGGUAGGUCGCAGCAGGUAGGUCGCAGUCUAGUCU	nM	44.3
UGUCAUUGGUCGGCCGCCACUCCAUAAUGAGUGAUGUUCUAAAAGACGGAUCGAAAGAUCUGUCGGAGGACCGGGACCGAUGACU [FiskerMod 5 - Jieux - Same State - Tryptophan B]	nM	799
GGGUGGCAGGCGGCCGCCACUCUGAGCACCCACUGAGUGAUGUUCGUGGCGUAAGCCUGUUCGUAGAGGACCGGGUUUGUUGUUC [Exclusion Tryptophan B GF 15]	nM	281
UCCUGUUGUCAGCCACGAAAGUGGAUUGAUACCAGAGUCGAAAGACUCCCUUGGCAGCGAGUGAUGUUCGCAGCAGGUAAAUAAA [MatMod 4 - Jieux - Exclusion - Theophylline A]	nM	207
GGGAGUAGUGCGGCCGCCACUGAGAAAGAAGAAGAUUGUAGUGAUGUUAUGGAGGAAAGGAAGAACAGGACCGGGCAUUAGAUUU [SSTRyptB.I]	nM	651

Then this sequence:
Prompt line: Recorded apparent KD of K4 kissing-loop reporter of UUAGUACAUAGAGAUACCAGCCAUCGAAGUGAUGUUUCGAGAAAUAAUGAUGUUGGUAUAGGCCCUUGGCAGCUCUAUGUACAUU [AK1 Exc Theophylline B] , please.
Response line: 94.7
